Reported growth values follow for various compounds
Test system: SN12C renal
assay-details: NCI-60 one-dose screen, 48 h (100 = growth as untreated, 0 = no growth, -100 = all killed)
experimental-conditions: 10 µM unless noted
Compounds without any hit were thinned out: in the full panel of roughly 83,000, 20% have a hit.
// note: answer is a bare numeric in %

Nc1ccc(S(=O)(=O)O)c2ccc(N=Nc3ccc(N=Nc4ccc(S(=O)(=O)O)cc4)c4ccccc34)c(O)c12    98.1

[Q] Sample O=C(Nc1cccc2[nH]c(C(F)(F)F)nc12)c1ccc(-n2cnnn2)cc1 — what was its growth?
[A] 108

[Q] Another compound: CSc1nc(Nc2cccc(NC(=O)/C(C#N)=C/c3c(Cl)cccc3Cl)c2)c(C#N)c(-c2cccc([N+](=O)[O-])c2)n1
[A] 44.6

[Q] Field entry: O=[N+]([O-])c1ccc2c(c1)Cc1cc(F)ccc1-2
[A] 99

[Q] Also C=C1c2nc3ccccc3n2C=C(c2ccc(OC)cc2)N1Cc1ccccc1 , if possible.
[A] 98.7
